system: Plasmodium berghei; test: Luciferase/luciferin-expressing antifolate-resistant parasites were used to infect a culture of HepG2 cells that were pre-incubated with compounds. Infected hepatocytes emit light due to the luciferase reaction. Assay results are presented as the percent inhibition of light emission compared to control. […]; format: functional; conditions: sporozoite, FFLUC_HILL_SLOPE 1.06, FFLUC_R_SQUARED 0.385, read-out: LUCIFERASE INFECTION ASSAY - IC50
experimental.readout: IC50

Query block: Give IC50 for "CCN(CC)c1ccc(S(=O)(=O)N2CCCCC2)cc1NC(=O)c1ccc2c(c1)nnn2CC"
Result block: > 10 µM

* * *

tested on: Plasmodium berghei; assay: Luciferase/luciferin-expressing antifolate-resistant parasites were used to infect a culture of HepG2 cells that were pre-incubated with compounds. Infected hepatocytes emit light due to the luciferase reaction. Assay results are presented as the percent inhibition of light emission compared to control. […]; format: functional; conditions: sporozoite, PBLUC_HILL_SLOPE 3.01, PBLUC_R_SQUARED 0.273, read-out: LUCIFERASE INFECTION ASSAY - IC50
experimental.readout: IC50

Query block: Recall the reported IC50 of "Cc1cc(C)n(-c2nc(NCc3ccco3)cc(-c3ccccc3)n2)n1" on Plasmodium berghei and write it down.
Result block: 5.14 µM

* * *

system: Plasmodium berghei; assay: Luciferase/luciferin-expressing antifolate-resistant parasites were used to infect a culture of HepG2 cells that were pre-incubated with compounds. Infected hepatocytes emit light due to the luciferase reaction. Assay results are presented as the percent inhibition of light emission compared to control. […]; type: functional; details: sporozoite, FFLUC_HILL_SLOPE 3.32, FFLUC_R_SQUARED 0.581, read-out: LUCIFERASE INFECTION ASSAY - IC50
experimental.readout: IC50

Query block: Give IC50 for "CCOC(=O)c1c(S(=O)(=O)N2CCN(Cc3ccccc3)CC2)c(-c2ccccc2)n(-c2ccccc2)c1C"
Result block: > 6.07 µM

* * *

system: Plasmodium berghei; assay: Luciferase/luciferin-expressing antifolate-resistant parasites were used to infect a culture of HepG2 cells that were pre-incubated with compounds. Infected hepatocytes emit light due to the luciferase reaction. Assay results are presented as the percent inhibition of light emission compared to control. […]; assay type: functional; conditions: sporozoite, HEPG2TOX_HILL_SLOPE 7.5, HEPG2TOX_R_SQUARED 0.498, PBLUC_HILL_SLOPE 1.96, PBLUC_R_SQUARED 0.361, read-out: LUCIFERASE INFECTION ASSAY - IC50
experimental.readout: IC50 (µM)
I only need the number, in µM, no unit after it.

Query block: Recall the reported IC50 of "O=C(Nc1ccc2c(c1)OCO2)c1cnc(N2CCN(CCc3ccccc3)C2=O)o1" on Plasmodium berghei and write it down.
Result block: 3.61

* * *

system: Plasmodium berghei; assay: Luciferase/luciferin-expressing antifolate-resistant parasites were used to infect a culture of HepG2 cells that were pre-incubated with compounds. Infected hepatocytes emit light due to the luciferase reaction. Assay results are presented as the percent inhibition of light emission compared to control. […]; assay type: functional; details: sporozoite, PBLUC_HILL_SLOPE 23.7, PBLUC_R_SQUARED 0.191, read-out: LUCIFERASE INFECTION ASSAY - IC50
experimental.readout: IC50 (µM)
I only need the number, in µM, no unit after it.

Query block: Recall the reported IC50 of "Cc1ccc2sc(N(Cc3ccccc3)C(=O)CN3CCC(C(N)=O)CC3)nc2c1C" on Plasmodium berghei and write it down.
Result block: 3.82
